METHOD: chemical genetic growth profiling, strain panel (AID 1159580);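 further: tested at 20 µM; growth read once vehicle control cultures reached saturation at 30 °C; 1 = growth at the plate median or of vehicle wells; lower values mean less growth of the strain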
RECORDED CONDITIONS: S. cerevisiae deletion strains, growth OD, locus YJR075W, strain HOC1, stronger effect = lower value
About 2,000 (36%) of roughly 5,500 compounds were called active. Inconclusive results (about 18%) are left out. Some of the results follow. Where a SMILES comes first, the peptide text is derived from it.
As shown below, each of these molecules has a reported normalized growth value.
QUANTITY: normalized growth

CCOC(=O)C(O)(c1ccc(N)c(C)c1)C(F)(F)F (stereo not drawn) :: 0.991
CC(=O)N[C@@H](CC(=O)O)C(=O)N[C@@H](CCC(=O)O)C(=O)O (Ac-Asp-Glu-OH) :: 1.01
COc1ccc(-c2nc(-c3ccc(-c4ccccc4)cc3)cs2)cc1 :: 1.02
CC(=O)N[C@@H](CCC(=O)O)C(=O)O :: 1
CC(=O)NC(CCC(=O)O)C(=O)O (stereo not drawn) :: 0.99
CCc1cccc(C)c1NC(=O)CC(C)(C)CC(=O)O :: 1.01
Cc1cc(CC(=O)O)n(C)c1C(=O)c1ccc(Cl)cc1 :: 1
Nc1ncnc(SCc2ccc(Cl)cc2)n1 :: 1.01

Values were extracted from PubChem BioAssay AID1159580.
